B1: EHEE_rd2_0191 (parent)
chain: TTEYTFTDDEEARRAIEELKKRGLTFRYEKHGTTWRVRVD

variants of: B1; assay: folding stability dG (cDNA display proteolysis); higher = more stable; conditions: PBS, room temperature
Is folding stability dG at least 2 kcal/mol? Then 1. If not, 0.

Ask: I'd appreciate it if you could say whether `TTEYTFTDDEEARRAIEELKKRGLTFRYEKHHTTWRVRVD` has folding stability dG at least equal to 2 kcal/mol.
Reply: 0

Ask: Please tell me: is the variant `TTEYTFTDSEEARRAIEELKKRGLTFRYEKHGTTWRVRVD` at or over 2 kcal/mol in terms of folding stability dG?
Reply: 0

Ask: For this variant, is measured folding stability dG 2 kcal/mol or higher? `TTEYTFTDDEEARRAIEELKKRGLTFRYEKHGTTWYVRVD`
Reply: 1

Ask: Reported folding stability dG reaches at least 2 kcal/mol for `TTEYTFQDDEEARRAIEELKKRGLTFRYEKHGTTWRVRVD` ?
Reply: 0

Ask: For this variant, is measured folding stability dG 2 kcal/mol or higher? `TTEYTFTDDEEARRAIEELKKRGLTFRYEKHGTQWRVRVD`
Reply: 0

Ask: Identify whether the reported folding stability dG of the following variant is 2 kcal/mol or greater: `TTEYTFTDDEEARRAIEELKKRGLTFRYEKSGTTWRVRVD`
Reply: 1

Ask: Form field: folding stability dG at least 2 kcal/mol? Entry: `TEEYTFTDDEEARRAIEELKKRGLTFRYEKHGTTWRVRVD`
Reply: 0

Ask: Does `TTEYTFTDDEEARRAIEELKKRGLTFRYEKHITTWRVRVD` have a reported folding stability dG of at least 2 kcal/mol?
Reply: 0

Ask: Hi team, for `TTEYHFTDDEEARRAIEELKKRGLTFRYEKHGTTWRVRVD` , is the recorded folding stability dG at or above 2 kcal/mol?
Reply: 0

Ask: Test whether the variant `VTEYTFTDDEEARRAIEELKKRGLTFRYEKHGTTWRVRVD` records folding stability dG of 2 kcal/mol or higher.
Reply: 1

Ask: Quick check: does `TTEYTFTDDEEARRAITELKKRGLTFRYEKHGTTWRVRVD` have folding stability dG greater than or equal to 2 kcal/mol?
Reply: 0

Ask: Determine whether this variant has folding stability dG no lower than 2 kcal/mol: `TTEYTFTDDEEARRAIEELKKRGLTFRYEKHGTTWCVRVD`
Reply: 1

Ask: Hi team, for `TTEYTFTDDEEARRAIELLKKRGLTFRYEKHGTTWRVRVD` , is the recorded folding stability dG at or above 2 kcal/mol?
Reply: 1

Ask: In plain terms: is recorded folding stability dG at least 2 kcal/mol for `TTEYTFTDDEGARRAIEELKKRGLTFRYEKHGTTWRVRVD` ?
Reply: 0

Ask: In plain terms: is recorded folding stability dG at least 2 kcal/mol for `TTEYTFTDDEEARRAIEELKKRGLTFRYEKHGETWRVRVD` ?
Reply: 1

Ask: Evaluate `TTEYTFTDDEEARRAIEELKKRGLTFRYEKHGTNWRVRVD` : folding stability dG at minimum 2 kcal/mol?
Reply: 0

Ask: Check this variant for folding stability dG at or above 2 kcal/mol: `TTEYTFTDDEEIRRAIEELKKRGLTFRYEKHGTTWRVRVD`
Reply: 0

Ask: Given `ATEYTFTDDEEARRAIEELKKRGLTFRYEKHGTTWRVRVD` , state whether its folding stability dG is at least 2 kcal/mol.
Reply: 1

Ask: Quick check, folding stability dG >= 2 kcal/mol? `TTEYTFTDDEEARRAIEELKKRGLTFRYEKHGTTWRVRQD`
Reply: 0

Ask: Hi team, for `TTEYTFTDDEEARRAIEELKKRGLTWRYEKHGTTWRVRVD` , is the recorded folding stability dG at or above 2 kcal/mol?
Reply: 0

Ask: Could you verify whether the entry `TTEYTFTDDEEARRAIEELKKRGLTFRYEKHGTFWRVRVD` shows folding stability dG of no less than 2 kcal/mol?
Reply: 1

Ask: Check the entry `TTEYTFTDDEEARRAIEELKKRGLTFRYEKHGTTWRVHVD` : does folding stability dG equal or exceed 2 kcal/mol?
Reply: 1

Ask: Say whether `KTEYTFTDDEEARRAIEELKKRGLTFRYEKHGTTWRVRVD` shows folding stability dG of 2 kcal/mol or more.
Reply: 0

Ask: Reported folding stability dG reaches at least 2 kcal/mol for `TTEYTFTDDEEARRAIEELKKRGLTFHYEKHGTTWRVRVD` ?
Reply: 1

Ask: Can `TTEYTFTDDEEARRAIEELKKRGLTFRYEKHGTTWGVRVD` be said to have folding stability dG at or above 2 kcal/mol?
Reply: 0

Ask: Is it the case that `TTEYTFTDDEFARRAIEELKKRGLTFRYEKHGTTWRVRVD` has folding stability dG reaching or exceeding 2 kcal/mol?
Reply: 0

Ask: Hi team, for `TTEYTFTDDEEARRAIEELKKRGSTFRYEKHGTTWRVRVD` , is the recorded folding stability dG at or above 2 kcal/mol?
Reply: 0

Ask: Can `TTEYTFTDDEEARRAIEELKKRGLTFRGEKHGTTWRVRVD` be said to have folding stability dG at or above 2 kcal/mol?
Reply: 0

Ask: Tell me whether folding stability dG is at least 2 kcal/mol here: `TTEYTFTDDETARRAIEELKKRGLTFRYEKHGTTWRVRVD`
Reply: 1

Ask: Given the entry `TTEYTFTDDEEARRAIEELKKRGLHFRYEKHGTTWRVRVD` , answer whether its folding stability dG meets or surpasses 2 kcal/mol.
Reply: 1

Ask: # bool: folding stability dG of `TTEYTFTDDEEARGAIEELKKRGLTFRYEKHGTTWRVRVD` >= 2 kcal/mol
Reply: 0

Ask: Please indicate if the recorded folding stability dG for `TTEYTFTDDEEARRAIEELKKRGVTFRYEKHGTTWRVRVD` meets or exceeds 2 kcal/mol.
Reply: 1

Ask: Does the variant `TTEYTFTDDEEARRAIEELKKRGLTFRYEKHGTTWRVNVD` have recorded folding stability dG that is 2 kcal/mol or more?
Reply: 0

Ask: Could you tell me if the measured folding stability dG of `TTEYTFTDDEEARRAIEELKKRGLTARYEKHGTTWRVRVD` reaches 2 kcal/mol or more?
Reply: 0

Ask: Determine whether measured folding stability dG meets or exceeds 2 kcal/mol for `TTEYTFTDDERARRAIEELKKRGLTFRYEKHGTTWRVRVD`
Reply: 0

Ask: Confirm if folding stability dG reported for the variant `TTEYTFTDDEEARRAIEELKKRGLTFRYEKHGTTWRVTVD` is 2 kcal/mol or above.
Reply: 1

Ask: Does the reported folding stability dG for `TTTYTFTDDEEARRAIEELKKRGLTFRYEKHGTTWRVRVD` fall at or above the 2 kcal/mol mark?
Reply: 1

Ask: Hi, just wondering whether `TTEYTFTDDEEARRAIEELKKRGLTFRYEKHGTWWRVRVD` shows folding stability dG of 2 kcal/mol or higher.
Reply: 0

Ask: Threshold query (folding stability dG >= 2 kcal/mol) on `TTEYTFTDDEEARRAIEELKKRGLTFRYETHGTTWRVRVD`
Reply: 0

Ask: Check this variant for folding stability dG at or above 2 kcal/mol: `TTEYTFTDDEEARRAIEELKSRGLTFRYEKHGTTWRVRVD`
Reply: 0

Ask: Threshold query (folding stability dG >= 2 kcal/mol) on `TTEYTFTDDEEARRAIEELKKRGLTFRYSKHGTTWRVRVD`
Reply: 1

Ask: In plain terms: is recorded folding stability dG at least 2 kcal/mol for `TTEYTFRDDEEARRAIEELKKRGLTFRYEKHGTTWRVRVD` ?
Reply: 0

Ask: Dear colleague, could you confirm whether `TTEYTFTDGEEARRAIEELKKRGLTFRYEKHGTTWRVRVD` has folding stability dG at or above 2 kcal/mol?
Reply: 0

Ask: Textbook exercise: given the entry `TTEYTFTDDEEALRAIEELKKRGLTFRYEKHGTTWRVRVD` , state whether its folding stability dG is greater than or equal to 2 kcal/mol.
Reply: 1

Ask: API: above_or_equal(metric=folding stability dG, cutoff=2 kcal/mol) for item `TTEYTFTDDEEARRAIEELKDRGLTFRYEKHGTTWRVRVD`
Reply: 0

Ask: Does the reported folding stability dG for `TREYTFTDDEEARRAIEELKKRGLTFRYEKHGTTWRVRVD` fall at or above the 2 kcal/mol mark?
Reply: 1

Ask: Check the entry `TTEYTFTDDEEARRAIEELKKRGLTFRIEKHGTTWRVRVD` : does folding stability dG equal or exceed 2 kcal/mol?
Reply: 1

Ask: Has `TTEYTFTDDEEARRAIEELKKRGLTFRYEKHDTTWRVRVD` a recorded folding stability dG greater than or equal to 2 kcal/mol?
Reply: 0

Ask: State whether the measured folding stability dG reaches 2 kcal/mol, counting equality as reaching it, for `TTEYTFTDDEEARRAIEELKKRGLTFRYEKHGTTWRVRVW`
Reply: 1

Ask: Identify whether the reported folding stability dG of the following variant is 2 kcal/mol or greater: `TTEYTFTDDEEARRAIEFLKKRGLTFRYEKHGTTWRVRVD`
Reply: 1

Ask: Quick check: does `TTEYTFTDDEEARRAIEELKKRGLPFRYEKHGTTWRVRVD` have folding stability dG greater than or equal to 2 kcal/mol?
Reply: 0

Ask: folding stability dG >= 2 kcal/mol for `TTEYTFTDDEEARRAIEELKKRGRTFRYEKHGTTWRVRVD` ?
Reply: 0

Ask: Dear colleague, could you confirm whether `TTEYTFTDDEEARRAIEELKKRGLTFRYEKHGTTWRVWVD` has folding stability dG at or above 2 kcal/mol?
Reply: 1

Ask: Identify whether the reported folding stability dG of the following variant is 2 kcal/mol or greater: `TTEYTFTDREEARRAIEELKKRGLTFRYEKHGTTWRVRVD`
Reply: 0

Ask: Quick check: does `TTEYTFTDDEEARRAIRELKKRGLTFRYEKHGTTWRVRVD` have folding stability dG greater than or equal to 2 kcal/mol?
Reply: 1

Ask: Is reported folding stability dG greater than or equal to 2 kcal/mol here: `TTEYTFTDDEEARRAIEELHKRGLTFRYEKHGTTWRVRVD`
Reply: 0

Ask: Quick check, folding stability dG >= 2 kcal/mol? `TTEYTFTDDEEARRAIEELKKRGLTFRYEKHGTTWRVRVP`
Reply: 0

Ask: Is reported folding stability dG greater than or equal to 2 kcal/mol here: `TTEYTFTDDEYARRAIEELKKRGLTFRYEKHGTTWRVRVD`
Reply: 0

Ask: State whether the measured folding stability dG reaches 2 kcal/mol, counting equality as reaching it, for `TTEYTFTDDEEARRAIEELKKRGLTFRYEKAGTTWRVRVD`
Reply: 0

Ask: Is folding stability dG at least 2 kcal/mol? Consider `TTEYTFTDDEEARRAIEELKKRGLTFRYEKHGTTWDVRVD`
Reply: 0

Ask: Can `TTEYTFTDDEEARRTIEELKKRGLTFRYEKHGTTWRVRVD` be said to have folding stability dG at or above 2 kcal/mol?
Reply: 0

Ask: Test whether the variant `TTEYTFTDDEEARRAIEELKKRGLGFRYEKHGTTWRVRVD` records folding stability dG of 2 kcal/mol or higher.
Reply: 0

Ask: folding stability dG >= 2 kcal/mol for `TTEYTFTDDEEARRAIEELKKRGTTFRYEKHGTTWRVRVD` ?
Reply: 0

Ask: Evaluate `TTEYTFTDDEEARRAIEELKKRGLTFTYEKHGTTWRVRVD` : folding stability dG at minimum 2 kcal/mol?
Reply: 1

Ask: Textbook exercise: given the entry `TTEYTFTDDEEARRAIEELKKRGLTFRYEKHGATWRVRVD` , state whether its folding stability dG is greater than or equal to 2 kcal/mol.
Reply: 0

Ask: Determine whether measured folding stability dG meets or exceeds 2 kcal/mol for `TTEYTFTDDEEARRAIEELKQRGLTFRYEKHGTTWRVRVD`
Reply: 0

Ask: # bool: folding stability dG of `TTEYTFTDDEEARRAIEELKKRGLTFRYEKHGTTWRVRVF` >= 2 kcal/mol
Reply: 1

Ask: Please tell me: is the variant `TTEYTFTDWEEARRAIEELKKRGLTFRYEKHGTTWRVRVD` at or over 2 kcal/mol in terms of folding stability dG?
Reply: 1

Ask: Hi team, for `TTEYTFTDDEEVRRAIEELKKRGLTFRYEKHGTTWRVRVD` , is the recorded folding stability dG at or above 2 kcal/mol?
Reply: 0

Ask: Decide: is the reported value of folding stability dG for `TTEYTFTDLEEARRAIEELKKRGLTFRYEKHGTTWRVRVD` equal to or greater than 2 kcal/mol?
Reply: 0

Ask: For this variant, is measured folding stability dG 2 kcal/mol or higher? `TTEYTFTDDEEARRAIEELLKRGLTFRYEKHGTTWRVRVD`
Reply: 1

Ask: Test whether the variant `TTEETFTDDEEARRAIEELKKRGLTFRYEKHGTTWRVRVD` records folding stability dG of 2 kcal/mol or higher.
Reply: 0

Ask: Hi team, for `TTEYTFTDDEETRRAIEELKKRGLTFRYEKHGTTWRVRVD` , is the recorded folding stability dG at or above 2 kcal/mol?
Reply: 0

Ask: Hi team, for `TTEYTFTDDEEARRAIEELKKRGLTFRYEKHGTTWTVRVD` , is the recorded folding stability dG at or above 2 kcal/mol?
Reply: 1

Ask: Entry `TTEYTFTDDEEARRAIEELKKRGLTFRYEKHGTTWRVRVV` : is its folding stability dG no less than 2 kcal/mol?
Reply: 1

Ask: Does folding stability dG meet or surpass 2 kcal/mol for `TTEYTFTDDEEARRAIEELKKRGLTFRYEKHYTTWRVRVD` ?
Reply: 0

Ask: Assess whether reported folding stability dG for `TTEYTFTDDEEARRAIEELKKRGLTFRYEKHGTTWRVIVD` sits at 2 kcal/mol or higher.
Reply: 1

Ask: Please tell me: is the variant `TTEYTFTDDEEARRAIEELKKRGLEFRYEKHGTTWRVRVD` at or over 2 kcal/mol in terms of folding stability dG?
Reply: 0

Ask: Quick check, folding stability dG >= 2 kcal/mol? `TTEYTFTDDEEAIRAIEELKKRGLTFRYEKHGTTWRVRVD`
Reply: 1

Ask: Please check the record `TTEYTFTDDEEARRAIEELKKRSLTFRYEKHGTTWRVRVD` and state if its folding stability dG is at or above 2 kcal/mol.
Reply: 0

Ask: Decide: folding stability dG of `TTEYTFTDDEEARRAIEELKYRGLTFRYEKHGTTWRVRVD` >= 2 kcal/mol?
Reply: 0

Ask: Given `TTEYTFTDDEEARRAIEELKKRGLTFRHEKHGTTWRVRVD` , state whether its folding stability dG is at least 2 kcal/mol.
Reply: 0
